Parameter AC50: see the listing below.
- SYSTEM UNDER TEST: D(1A) dopamine receptor (Homo sapiens, UniProt P21728); note: assay procedure not described here
- Sequence (P21728 whole entry): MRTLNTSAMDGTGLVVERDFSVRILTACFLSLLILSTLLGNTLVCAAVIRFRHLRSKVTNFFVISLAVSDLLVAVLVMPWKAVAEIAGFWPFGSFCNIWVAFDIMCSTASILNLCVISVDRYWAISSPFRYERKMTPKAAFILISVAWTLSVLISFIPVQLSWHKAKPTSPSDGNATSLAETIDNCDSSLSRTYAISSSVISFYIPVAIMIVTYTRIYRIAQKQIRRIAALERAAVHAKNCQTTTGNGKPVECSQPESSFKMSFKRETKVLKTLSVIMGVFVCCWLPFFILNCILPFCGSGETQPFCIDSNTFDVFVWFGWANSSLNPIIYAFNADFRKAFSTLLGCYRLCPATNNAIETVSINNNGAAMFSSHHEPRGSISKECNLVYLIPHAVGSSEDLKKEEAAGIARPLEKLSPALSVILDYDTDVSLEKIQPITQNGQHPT

COMPOUND	AC50
CC(C)(C)NCC(O)COc1ccccc1C#N (stereo not drawn) [BUNITROLOL]	> 30 µM
CC(C)NC[C@H](O)COc1ccc(O)cc1 [PRENALTEROL]	> 30 µM

With those in mind, consider the next compound.
Incoming: # input compound: Nc1ccn(C[C@@H](CO)OCP(=O)(O)O)c(=O)n1 [CIDOFOVIR] ; wanted: its AC50
Outgoing: > 30 µM

---

- SYSTEM UNDER TEST: Glutamate receptor ionotropic, NMDA 1 (Rattus norvegicus, UniProt P35439); note: assay procedure not described here
Parameter AC50: see the listing below.

Examples from the recorded data:
COMPOUND	AC50
COc1ccc(-c2cc(=S)ss2)cc1 [ANETHOLTRITHION]	> 30 µM
CC(=O)Oc1cccc2c1C(=O)c1c(OC(C)=O)cc(C(=O)O)cc1C2=O [DIACEREIN]	> 30 µM

Incoming: Request body: readout AC50, system Glutamate receptor ionotropic, NMDA 1 (Rattus norvegicus, UniProt P35439), query Nc1ccc(S(=O)(=O)Nc2ncccn2)cc1 [SULFADIAZINE] . Return the value. Note: assay procedure not described here.
Outgoing: > 10 µM

---

- SYSTEM UNDER TEST: Equilibrative nucleoside transporter 1 (Homo sapiens); note: assay procedure not described here
- Sequence (Q99808 whole entry): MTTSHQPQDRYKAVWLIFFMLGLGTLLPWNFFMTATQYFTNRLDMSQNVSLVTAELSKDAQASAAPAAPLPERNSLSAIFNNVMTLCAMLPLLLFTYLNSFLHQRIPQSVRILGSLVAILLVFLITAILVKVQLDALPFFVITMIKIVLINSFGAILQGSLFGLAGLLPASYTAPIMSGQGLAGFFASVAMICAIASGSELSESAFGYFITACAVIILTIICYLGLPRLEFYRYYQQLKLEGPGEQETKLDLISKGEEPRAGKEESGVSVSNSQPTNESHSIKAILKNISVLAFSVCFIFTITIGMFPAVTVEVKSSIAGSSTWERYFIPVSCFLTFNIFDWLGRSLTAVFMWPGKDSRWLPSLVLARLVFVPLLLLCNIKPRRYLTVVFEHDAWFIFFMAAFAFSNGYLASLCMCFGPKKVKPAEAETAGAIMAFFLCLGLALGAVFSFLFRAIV
Parameter AC50: see the listing below.

Examples from the recorded data:
COMPOUND	AC50
O=C(O)COC(=O)Cc1ccccc1Nc1c(Cl)cccc1Cl	> 30 µM
CC(=O)OCC(=O)[C@@]1(O)CC[C@H]2[C@@H]3CCC4=CC(=O)CC[C@]4(C)[C@@]3(F)[C@@H](O)C[C@@]21C [FLUDROCORTISONE ACETATE]	> 30 µM
CCN(CC)C(C)C(=O)c1ccccc1 (stereo unspecified)	> 30 µM

Incoming: Request body: readout AC50, system Equilibrative nucleoside transporter 1 (Homo sapiens), query N=C(N)NC(=O)Cc1c(Cl)cccc1Cl . Return the value. Note: assay procedure not described here.
Outgoing: > 30 µM

Incoming: Request body: readout AC50, system Equilibrative nucleoside transporter 1 (Homo sapiens), query Cc1ccc(-c2ncc(Cl)cc2-c2ccc(S(C)(=O)=O)cc2)cn1 . Return the value. Note: assay procedure not described here.
Outgoing: > 30 µM

Incoming: Request body: readout AC50, system Equilibrative nucleoside transporter 1 (Homo sapiens), query Nc1ccc(S(=O)(=O)Nc2ncccn2)cc1 . Return the value. Note: assay procedure not described here.
Outgoing: > 10 µM

Incoming: Request body: readout AC50, system Equilibrative nucleoside transporter 1 (Homo sapiens), query O=C(O)c1nn(Cc2ccc(Cl)cc2Cl)c2ccccc12 . Return the value. Note: assay procedure not described here.
Outgoing: > 30 µM

Incoming: Request body: readout AC50, system Equilibrative nucleoside transporter 1 (Homo sapiens), query CC(=O)OCC1=C(C(=O)O)N2C(=O)[C@@H](NC(=O)CSc3ccncc3)[C@H]2SC1 . Return the value. Note: assay procedure not described here.
Outgoing: > 10 µM

Incoming: Request body: readout AC50, system Equilibrative nucleoside transporter 1 (Homo sapiens), query O=C1CN=C(c2ccccc2Cl)c2cc([N+](=O)[O-])ccc2N1 . Return the value. Note: assay procedure not described here.
Outgoing: > 30 µM

Incoming: Request body: readout AC50, system Equilibrative nucleoside transporter 1 (Homo sapiens), query CC(=O)Oc1cccc2c1C(=O)c1c(OC(C)=O)cc(C(=O)O)cc1C2=O . Return the value. Note: assay procedure not described here.
Outgoing: 4.8 µM

Incoming: Request body: readout AC50, system Equilibrative nucleoside transporter 1 (Homo sapiens), query O=C(O[C@H]1C[N+]2(CCCOc3ccccc3)CCC1CC2)C(O)(c1cccs1)c1cccs1 [ACLIDINIUM BROMIDE] . Return the value. Note: assay procedure not described here.
Outgoing: > 30 µM

Incoming: Request body: readout AC50, system Equilibrative nucleoside transporter 1 (Homo sapiens), query CC1Cc2ccccc2N1NC(=O)c1ccc(Cl)c(S(N)(=O)=O)c1 (stereo unspecified) [INDAPAMIDE] . Return the value. Note: assay procedure not described here.
Outgoing: > 30 µM

Incoming: Request body: readout AC50, system Equilibrative nucleoside transporter 1 (Homo sapiens), query COC(=O)CCc1ccc(OCC(O)CNC(C)C)cc1 (stereo unspecified) . Return the value. Note: assay procedure not described here.
Outgoing: > 30 µM

Incoming: Request body: readout AC50, system Equilibrative nucleoside transporter 1 (Homo sapiens), query C[C@@H](O)[C@H]1C(=O)N2C(C(=O)O)=C(SCCN=CN)C[C@H]12 [IMIPENEM ANHYDROUS] . Return the value. Note: assay procedure not described here.
Outgoing: > 300 µM

Incoming: Request body: readout AC50, system Equilibrative nucleoside transporter 1 (Homo sapiens), query CN(C)CCOC(=O)C(c1ccccc1)C1(O)CCCC1 (stereo unspecified) [CYCLOPENTOLATE] . Return the value. Note: assay procedure not described here.
Outgoing: > 30 µM

---

- SYSTEM UNDER TEST: Voltage-gated inwardly rectifying potassium channel KCNH2 (Homo sapiens, UniProt Q12809); note: assay procedure not described here
- Sequence (Q12809 whole entry): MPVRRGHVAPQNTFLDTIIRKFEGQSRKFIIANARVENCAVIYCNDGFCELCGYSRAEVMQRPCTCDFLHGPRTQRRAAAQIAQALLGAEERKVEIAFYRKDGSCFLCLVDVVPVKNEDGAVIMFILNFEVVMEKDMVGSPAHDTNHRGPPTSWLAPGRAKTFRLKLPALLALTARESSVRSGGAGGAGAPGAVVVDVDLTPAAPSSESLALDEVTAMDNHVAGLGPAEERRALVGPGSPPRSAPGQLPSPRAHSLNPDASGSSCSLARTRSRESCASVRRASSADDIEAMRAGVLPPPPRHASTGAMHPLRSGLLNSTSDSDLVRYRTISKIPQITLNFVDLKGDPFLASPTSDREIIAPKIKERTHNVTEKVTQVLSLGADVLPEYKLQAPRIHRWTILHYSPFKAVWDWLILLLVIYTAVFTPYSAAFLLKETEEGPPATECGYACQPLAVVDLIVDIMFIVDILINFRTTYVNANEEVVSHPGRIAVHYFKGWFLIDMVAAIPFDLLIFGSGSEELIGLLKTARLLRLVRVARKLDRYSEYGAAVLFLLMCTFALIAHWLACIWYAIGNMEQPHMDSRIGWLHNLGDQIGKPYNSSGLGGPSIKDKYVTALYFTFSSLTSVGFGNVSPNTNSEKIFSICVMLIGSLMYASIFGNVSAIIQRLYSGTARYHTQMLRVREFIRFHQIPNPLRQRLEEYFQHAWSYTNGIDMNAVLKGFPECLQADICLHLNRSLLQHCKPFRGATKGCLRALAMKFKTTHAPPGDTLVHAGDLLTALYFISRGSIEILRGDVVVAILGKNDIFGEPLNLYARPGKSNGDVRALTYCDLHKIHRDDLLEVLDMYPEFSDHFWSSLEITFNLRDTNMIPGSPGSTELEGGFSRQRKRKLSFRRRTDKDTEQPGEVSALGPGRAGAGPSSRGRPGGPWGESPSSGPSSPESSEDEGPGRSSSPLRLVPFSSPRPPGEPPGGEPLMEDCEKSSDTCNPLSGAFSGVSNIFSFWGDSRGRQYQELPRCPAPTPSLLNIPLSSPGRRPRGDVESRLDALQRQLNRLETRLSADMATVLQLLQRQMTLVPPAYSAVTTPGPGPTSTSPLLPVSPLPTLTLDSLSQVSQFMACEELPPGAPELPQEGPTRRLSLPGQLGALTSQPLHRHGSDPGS
- Format: functional
- SETTINGS: read-out: AC50
Parameter AC50: see the listing below.

Examples from the recorded data:
COMPOUND	RESULT
CN1CCC(=C2c3ccccc3CC(=O)c3sccc32)CC1 [KETOTIFEN]	1.5 µM
CN1CCc2c(c3ccccc3n2Cc2ccccc2)C1 [MEBHYDROLIN]	1 µM
OCC(CO)N[C@H]1C[C@](O)(CO)[C@@H](O)[C@H](O)[C@H]1O [VOGLIBOSE]	> 30 µM
Cc1cn(-c2cc(NC(=O)c3ccc(C)c(Nc4nccc(-c5cnccn5)n4)c3)cc(C(F)(F)F)c2)cn1 [RADOTINIB]	> 30 µM
CCC(NC(C)C)C(O)c1ccc(O)c(O)c1 (centres undefined) [ISOETHARINE]	> 30 µM

Incoming: # input compound: CC(C)/N=c1\cc2n(-c3ccc(Cl)cc3)c3ccccc3nc-2cc1Nc1ccc(Cl)cc1 [CLOFAZIMINE] ; wanted: its AC50
Outgoing: 0.958 µM

Incoming: # input compound: Cc1ccc(-c2ncc(Cl)cc2-c2ccc(S(C)(=O)=O)cc2)cn1 [ETORICOXIB] ; wanted: its AC50
Outgoing: > 30 µM

Incoming: # input compound: C#CCN(C)Cc1ccccc1 [PARGYLINE] ; wanted: its AC50
Outgoing: > 30 µM

Incoming: # input compound: CC(C)(Oc1ccc(Cl)cc1)C(=O)NC(=O)NCN1CCOCC1 [PLAFIBRIDE] ; wanted: its AC50
Outgoing: > 30 µM

---

Parameter 'readout' = AC50; parameter 'system' = Neuronal acetylcholine receptor subunit alpha-4 (Homo sapiens, UniProt P43681). Note: assay procedure not described here.
Sequence (P43681 whole entry): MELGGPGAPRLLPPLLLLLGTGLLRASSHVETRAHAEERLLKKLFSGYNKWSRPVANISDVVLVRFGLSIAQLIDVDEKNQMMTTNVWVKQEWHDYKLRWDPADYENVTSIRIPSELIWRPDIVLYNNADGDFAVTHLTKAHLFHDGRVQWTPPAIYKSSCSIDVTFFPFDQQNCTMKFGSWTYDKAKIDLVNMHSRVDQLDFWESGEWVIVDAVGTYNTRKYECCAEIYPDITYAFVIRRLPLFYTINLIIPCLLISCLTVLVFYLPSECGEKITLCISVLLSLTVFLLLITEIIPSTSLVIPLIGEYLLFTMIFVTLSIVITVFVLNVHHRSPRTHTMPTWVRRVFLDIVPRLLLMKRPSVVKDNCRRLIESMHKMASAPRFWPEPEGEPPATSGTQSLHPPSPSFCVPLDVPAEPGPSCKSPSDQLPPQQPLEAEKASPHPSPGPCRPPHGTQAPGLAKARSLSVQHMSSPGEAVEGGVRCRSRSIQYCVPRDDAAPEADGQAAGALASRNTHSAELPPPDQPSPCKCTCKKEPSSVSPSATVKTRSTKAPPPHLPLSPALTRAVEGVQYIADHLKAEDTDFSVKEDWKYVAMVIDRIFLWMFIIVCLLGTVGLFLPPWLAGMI

Examples from the recorded data:
MOLECULE	PARAMETER	RESULT
O=C(O)c1nn(Cc2ccc(Cl)cc2Cl)c2ccccc12	AC50	> 30 µM
Cc1cccc(Nc2ccncc2S(=O)(=O)NC(=O)NC(C)C)c1 [TORSEMIDE]	AC50	> 30 µM
Cc1ccc(-c2ncc(Cl)cc2-c2ccc(S(C)(=O)=O)cc2)cn1	AC50	> 10 µM
OCC(O)COc1ccc(Cl)cc1 (stereo not drawn)	AC50	> 10 µM
CC(=O)Oc1cccc2c1C(=O)c1c(OC(C)=O)cc(C(=O)O)cc1C2=O	AC50	27 µM

With those in mind, consider the next molecule.
Incoming: # input molecule: CCN(CC)C(C)C(=O)c1ccccc1 (stereo not drawn) ; wanted: its AC50
Outgoing: > 10 µM

---

- SYSTEM UNDER TEST: Muscarinic acetylcholine receptor M2 (Homo sapiens, UniProt P08172); note: assay procedure not described here
- Sequence (P08172 whole entry): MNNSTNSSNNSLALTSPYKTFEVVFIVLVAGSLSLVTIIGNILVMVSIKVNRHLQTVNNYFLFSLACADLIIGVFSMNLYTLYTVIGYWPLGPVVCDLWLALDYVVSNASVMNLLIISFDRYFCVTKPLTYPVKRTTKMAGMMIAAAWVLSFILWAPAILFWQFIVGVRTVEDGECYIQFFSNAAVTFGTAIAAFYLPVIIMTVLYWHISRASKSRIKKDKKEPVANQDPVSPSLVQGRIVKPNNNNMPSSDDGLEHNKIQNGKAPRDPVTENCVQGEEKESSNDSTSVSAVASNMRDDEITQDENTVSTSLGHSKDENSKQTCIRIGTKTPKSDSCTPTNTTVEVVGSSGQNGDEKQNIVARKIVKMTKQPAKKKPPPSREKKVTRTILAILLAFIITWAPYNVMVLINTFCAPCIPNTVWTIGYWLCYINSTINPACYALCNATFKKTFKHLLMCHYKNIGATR
- Assay type: functional, cell-based
PARAMETER: AC50

Examples from the recorded data:
COMPOUND	RESULT
CCC(=O)O[C@H](CC(=O)O)C[N+](C)(C)C [LEVOCARNITINE PROPIONATE]	> 30 µM
Cc1ccc(-c2ncc(Cl)cc2-c2ccc(S(C)(=O)=O)cc2)cn1 [ETORICOXIB]	> 10 µM
CN(C)CCOCC(=O)NC12CC3CC(CC(C3)C1)C2 [TROMANTADINE]	> 30 µM
CN1C2CCCC1CC(NC(=O)c1nn(C)c3ccccc13)C2 (stereo not given) [GRANISETRON]	> 10 µM

With those in mind, consider the next compound.
Incoming: # input compound: CCC1(c2ccccc2)C(=O)NCNC1=O [PRIMIDONE] ; wanted: its AC50
Outgoing: > 10 µM

---

Parameter AC50: see the listing below.
- SYSTEM UNDER TEST: 5-hydroxytryptamine receptor 2B (Homo sapiens, UniProt P41595); note: assay procedure not described here
- Sequence (P41595 whole entry): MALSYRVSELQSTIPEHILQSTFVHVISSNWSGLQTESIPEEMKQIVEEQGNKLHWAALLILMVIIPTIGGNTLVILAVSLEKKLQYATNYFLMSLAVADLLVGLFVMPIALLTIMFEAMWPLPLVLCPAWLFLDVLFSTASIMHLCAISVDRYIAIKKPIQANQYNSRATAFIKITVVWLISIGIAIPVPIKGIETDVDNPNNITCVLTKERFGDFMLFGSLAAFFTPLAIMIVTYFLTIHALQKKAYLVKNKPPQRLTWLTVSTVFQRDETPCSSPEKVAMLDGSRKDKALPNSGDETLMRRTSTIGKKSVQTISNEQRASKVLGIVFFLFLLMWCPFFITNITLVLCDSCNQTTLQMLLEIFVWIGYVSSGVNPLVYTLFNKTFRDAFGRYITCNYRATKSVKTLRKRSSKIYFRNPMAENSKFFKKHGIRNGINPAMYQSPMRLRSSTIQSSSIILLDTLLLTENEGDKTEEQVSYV
- Type: functional, cell-based

Examples from the recorded data:
COMPOUND	RESULT
CC(C)/N=c1\cc2n(-c3ccc(Cl)cc3)c3ccccc3nc-2cc1Nc1ccc(Cl)cc1	> 30 µM
O=C(Cc1cccs1)N[C@@H]1C(=O)N2C(C(=O)[O-])=C(C[n+]3ccccc3)CS[C@H]12	> 30 µM
CC1=C(/C=C/C(C)=C/C=C/C(C)=C/C(=O)Oc2c(C)c(C)c3c(c2C)CCC(C)(CCCC(C)CCCC(C)CCCC(C)C)O3)C(C)(C)CCC1 (stereo not drawn)	> 30 µM

Incoming: # input compound: NS(=O)(=O)c1ccc(N2CCCCS2(=O)=O)cc1 ; wanted: its AC50
Outgoing: > 30 µM

Incoming: # input compound: OCC(CO)N[C@H]1C[C@](O)(CO)[C@@H](O)[C@H](O)[C@H]1O ; wanted: its AC50
Outgoing: > 30 µM

Incoming: # input compound: CCC(=O)O[C@H](CC(=O)O)C[N+](C)(C)C [LEVOCARNITINE PROPIONATE] ; wanted: its AC50
Outgoing: > 30 µM

Incoming: # input compound: O=C(O)c1nn(Cc2ccc(Cl)cc2Cl)c2ccccc12 ; wanted: its AC50
Outgoing: > 30 µM

Incoming: # input compound: CCN(CC)C(C)C(=O)c1ccccc1 (stereo not drawn) ; wanted: its AC50
Outgoing: > 10 µM
